Assay: Clearance in Sprague-Dawley rat at 1 mg/kg, iv by LC/MS/MS analysis
Assay type: ADME, organism-based
Settings: in vivo
Decide by clearance: equal to or exceeding 8 mL/min/kg means Condition met, less means Condition not met.

Here's what some known entries look like.
stdin: Hello, I need to know if Cc1ccc(CN2CCOCC2)cc1NC(=O)c1ccc(Nc2ncc(F)c(-c3ccc(OC(F)(F)F)cc3)n2)cc1 has measured clearance not below 8 mL/min/kg. Thanks!
stdout: Condition not met

stdin: Hello, I need to know if Cc1c(C(=O)Nc2ccc(N3C[C@@H](C)O[C@@H](C)C3)nc2)cccc1-c1ccc(OC(F)(F)F)cc1 [SONIDEGIB] has measured clearance not below 8 mL/min/kg. Thanks!
stdout: Condition not met

stdin: Hello, I need to know if Cc1ccc(CN2CCOCC2)cc1NC(=O)c1ccc(Nc2ncc(F)c(-c3ccc(OC(F)(F)F)cc3)n2)nc1 has measured clearance not below 8 mL/min/kg. Thanks!
stdout: Condition met

stdin: Hello, I need to know if O=C(Nc1cccc(CN2CCOCC2)c1)c1ccc(Nc2nccc(-c3ccc(OC(F)(F)F)cc3)n2)cc1 has measured clearance not below 8 mL/min/kg. Thanks!
stdout: Condition met

Further cases:
stdin: Hello, I need to know if Cc1ccc(CN2CCOCC2)cc1NC(=O)c1ccc(Nc2ncc(F)c(-c3ccc(OC(F)(F)F)cc3)n2)cn1 has measured clearance not below 8 mL/min/kg. Thanks!
stdout: Condition met

stdin: Hello, I need to know if Cc1ccc(CN2CCOCC2)cc1NC(=O)c1ccc(Nc2nccc(-c3ccc(OC(F)(F)F)cc3)n2)cc1 has measured clearance not below 8 mL/min/kg. Thanks!
stdout: Condition not met

Origin of measurements: ChEMBL document CHEMBL3763021
